Biological target: JAK1 (Homo sapiens (Human))
Sequence (P23458 875-1153): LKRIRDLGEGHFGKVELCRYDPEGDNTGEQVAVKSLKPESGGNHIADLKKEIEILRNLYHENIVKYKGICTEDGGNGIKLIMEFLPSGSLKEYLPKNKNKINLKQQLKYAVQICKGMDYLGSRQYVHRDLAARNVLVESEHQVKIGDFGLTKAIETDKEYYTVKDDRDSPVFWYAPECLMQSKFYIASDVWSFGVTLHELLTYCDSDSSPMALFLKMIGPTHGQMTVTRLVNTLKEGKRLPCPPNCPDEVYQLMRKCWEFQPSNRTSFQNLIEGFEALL
Assay: Jak biochemical HTRF assay, JAK1
Conditions: JAK1 IC50 (nM), recombinant GST-tagged catalytic domain, [ATP] 31.8 μM
MEASUREMENT TYPE: IC50 (nM)

(1) CN(C)CCOC(=O)N1CCC([C@H](CC#N)n2cc(C(N)=O)c(Nc3ccc(F)cc3)n2)CC1 (stereo in doubt)
(2) C[S+]([O-])c1ccc(Nc2nn(C(CC#N)C3CC3)cc2C(N)=O)cc1 (centres unmarked)
(3) CC(C)(C)CC(CC#N)n1cc(C(N)=O)c(Nc2ccccc2)n1 (centres unmarked)
(4) N#CCC(C1CCCC1)n1cc(C(N)=O)c(Nc2ccc(C(=O)N3CCS(=O)(=O)CC3)cc2)n1 (centres unmarked)
(5) C[C@H](C#N)[C@H](C)n1cc(C(N)=O)c(Nc2ccccc2)n1 (mixture of isomers)
Order these by IC50, descending, and give the full ranking. Respond with an ordered listing of the labels, as requested.
1, 3, 5, 4, 2

---

Biological target: JAK1 (Homo sapiens (Human))
Assay: Jak biochemical HTRF assay, JAK1
Settings: JAK1 IC50 (nM), recombinant GST-tagged catalytic domain, [ATP] 31.8 μM
MEASUREMENT TYPE: IC50 (nM)

| MOLECULE | TEST SYSTEM | IC50 / nM |
| --- | --- | --- |
| N#CCC(C1CCC1)n1cc(C(N)=O)c(Nc2ccccc2)n1 (centres unmarked) [Example 1-19] | JAK1 (Homo sapiens (Human)) | 31 |
| CC(C)(C)OC(=O)N1CCC(C(C)(CC#N)n2cc(C(N)=O)c(Nc3ccccc3)n2)CC1 (centres unmarked) [Example 3-3] | JAK1 (Homo sapiens (Human)) | 5 |
| CC(C)(C)COC(=O)N1CCC([C@H](CC#N)n2cc(C(N)=O)c(Nc3ccc(F)cc3)n2)CC1 (single isomer, unassigned) [Example 12-2] | JAK1 (Homo sapiens (Human)) | 718 |

(I) N#CCC(C1CC1)n1cc(C(N)=O)c(Nc2cccc(C#N)c2)n1 (centres unmarked) [Example 4-16]
(II) N#CCC(C1CCCC1)n1cc(C(N)=O)c(Nc2ccccc2)n1 (single isomer, unassigned) [Example 16-4]
# returns the entry with the larger IC50; inputs I and II Mark your selection by writing its label.
II

---

Target: JAK2 (Homo sapiens (Human))
Sequence (O60674 849-1124): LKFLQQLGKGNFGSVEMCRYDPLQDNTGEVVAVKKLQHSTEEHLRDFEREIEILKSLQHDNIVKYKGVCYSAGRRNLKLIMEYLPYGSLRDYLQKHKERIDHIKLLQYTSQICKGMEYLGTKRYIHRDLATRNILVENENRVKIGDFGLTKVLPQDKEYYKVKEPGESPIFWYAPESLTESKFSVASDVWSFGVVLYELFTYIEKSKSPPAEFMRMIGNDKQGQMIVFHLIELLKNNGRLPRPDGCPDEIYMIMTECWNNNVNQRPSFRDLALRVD
Assay: Jak biochemical HTRF assay, JAK2
Settings: JAK2 IC50 (nM), recombinant GST-tagged catalytic domain, [ATP] […]
MEASUREMENT TYPE: IC50 (nM)

| COMPOUND | IC50, nM |
| --- | --- |
| CN(C)CCOC(=O)N1CCC([C@H](CC#N)n2cc(C(N)=O)c(Nc3ccc(F)cc3)n2)CC1 (stereo in doubt) | 1500 |
| N#CC[C@H](C1CC1)n1cc(C(N)=O)c(Nc2ccnc(F)c2)n1 (single isomer, unassigned) | 16 |
| N#CCC(C1CC1)n1cc(C(N)=O)c(Nc2ccccc2)n1 (centres unmarked) [Example 1-1] | 79 |
| CC(C)C(CC#N)n1cc(C(N)=O)c(Nc2ccccc2)n1 (centres unmarked) | 641 |
| N#CCC(C1CC1)n1cc(C(N)=O)c(Nc2ccc3c(c2)CN(CC(F)(F)F)C3=O)n1 (centres unmarked) | 7 |

(P) CC(C)(C)OC(=O)N1CCC(C(CC#N)n2cc(C(N)=O)c(Nc3ccc(F)cc3)n2)CC1 (centres unmarked) [Example 3-1]
(Q) N#CCC(C1CC1)n1cc(C(N)=O)c(Nc2ccc3c(c2)C=CS3(=O)=O)n1 (centres unmarked)
(R) N#CCC(C1CC1)n1cc(C(N)=O)c(Nc2ccc3c(c2)CCC3=O)n1 (centres unmarked)
(S) N#CCC(C1CC1)n1cc(C(N)=O)c(Nc2ccccc2)n1 (single isomer, unassigned) [Example 17-3]
(T) N#CCC(C1CC1)n1cc(C(N)=O)c(Nc2ccnc(Cl)c2)n1 (centres unmarked)
Rank descending by IC50. Field: ranking. Enter the labels in the order requested.
P, T, S, Q, R

(P) CC(C)(C)CC(CC#N)n1cc(C(N)=O)c(Nc2ccccc2)n1 (centres unmarked)
(Q) N#CCC(C1CC1)n1cc(C(N)=O)c(Nc2cncc(C#N)c2)n1 (centres unmarked)
(R) CC(C)(C)OC(=O)CN1Cc2cc(Nc3nn(C(CC#N)C4CC4)cc3C(N)=O)ccc2C1=O (centres unmarked)
(S) CC(C)(C)OC(=O)N1CCC(C(C)(CC#N)n2cc(C(N)=O)c(Nc3ccccc3)n2)CC1 (centres unmarked)
Order field: IC50 | Direction: descending (largest first) Please list the labels according to the requested order.
P, Q, S, R
